# MEASURED_TARGET: RARα (Homo sapiens)
# Sequence (P10276 1-462): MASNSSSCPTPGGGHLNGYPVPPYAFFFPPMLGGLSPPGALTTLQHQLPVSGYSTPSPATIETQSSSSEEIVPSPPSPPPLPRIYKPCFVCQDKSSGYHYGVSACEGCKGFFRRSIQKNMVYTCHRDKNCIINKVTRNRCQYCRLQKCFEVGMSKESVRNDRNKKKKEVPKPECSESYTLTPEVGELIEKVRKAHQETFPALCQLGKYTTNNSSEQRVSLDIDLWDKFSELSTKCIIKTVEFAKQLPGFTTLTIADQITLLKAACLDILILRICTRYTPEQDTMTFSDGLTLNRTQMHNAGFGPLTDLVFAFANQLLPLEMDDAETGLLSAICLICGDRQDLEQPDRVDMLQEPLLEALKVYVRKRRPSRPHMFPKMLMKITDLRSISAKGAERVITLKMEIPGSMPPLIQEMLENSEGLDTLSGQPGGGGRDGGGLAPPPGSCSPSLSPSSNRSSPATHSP
pKd: −log10 of the molar value.
# pKd per record follows

{"columns": ["COMPOUND_STRUCTURE", "MEASURED_TARGET", "RESULT"],
 "data": [
  ["CC(=O)OCOC(=O)Cc1ccc(OC(=O)c2cc(C#N)c3c(c2)C(C)(C)CC(C)(C)O3)cc1F", "RARα (Homo sapiens)", "< 5.00"],
  ["C#Cc1cc(C(=O)Oc2ccc(CC(=O)OCC)cc2)cc2c1OC(C)(C)CC2(C)C", "RARα (Homo sapiens)", "< 5.00"]
]}

Moving on to the next compound.
The value of pKd measured for the compound `CC1(C)CC(C)(C)c2cc(C(=O)Oc3ccc(CC(=O)O)c(F)c3)cc(C#N)c2O1` turned out to be < 5.00
